Assay: Rat in vivo CNS penetration: plasma, brain and CSF concentrations by LC-MS/MS
Details: male, Sprague Dawley, brain, po, 10 mg/kg, 10 mg/kg p.o., 4 h post-dose, read-out: Brtot:Pltot
RESULT TYPE: Kp at 4 h

molecular_string=COc1cnc(C(=O)Nc2cc(F)c(F)c([C@]34CO[C@H](CF)[C@H]3CSC(N)=N4)c2)cn1 result_type="Kp at 4 h" val=3.4
molecular_string=COc1cnc(C(=O)Nc2ccc(F)c([C@]34CO[C@H](CF)[C@H]3CSC(N)=N4)c2)cn1 result_type="Kp at 4 h" val=2.1
molecular_string=COc1cnc(C(=O)Nc2ccc(F)c([C@]34CO[C@H](C(F)F)[C@H]3CSC(N)=N4)c2)cn1 result_type="Kp at 4 h" val=2.5

* * *

Measured concentration at 6 h of individual entries
Assay: Rat in vivo CNS penetration: plasma, brain and CSF concentrations by LC-MS/MS
Details: male, Sprague Dawley, plasma, po, 10 mg/kg, 10 mg/kg p.o., 6 h post-dose, unbound plasma, [Pl] x Pl Fu, read-out: [Plu]
RESULT TYPE: concentration at 6 h

molecular_string=COc1cnc(C(=O)Nc2ccc(F)c([C@]34CO[C@H](CF)[C@H]3CSC(N)=N4)c2)cn1 val="89 nM"
molecular_string=COc1cnc(C(=O)Nc2ccc(F)c([C@]34CO[C@H](C(F)F)[C@H]3CSC(N)=N4)c2)cn1 val="33 nM"
molecular_string=COc1cnc(C(=O)Nc2cc(F)c(F)c([C@]34CO[C@H](CF)[C@H]3CSC(N)=N4)c2)cn1 val="21 nM"

* * *

Experiment: Rat in vivo CNS penetration: plasma, brain and CSF concentrations by LC-MS/MS
Settings: male, Sprague Dawley, brain, po, 10 mg/kg, 10 mg/kg p.o., 8 h post-dose, total brain concentration, read-out: [Br]
Measured concentration at 8 h of individual entries
RESULT TYPE: concentration at 8 h (nM)

molecule="COc1cnc(C(=O)Nc2ccc(F)c([C@]34CO[C@H](CF)[C@H]3CSC(N)=N4)c2)cn1 [Example 2]" val=479
molecule="COc1cnc(C(=O)Nc2cc(F)c(F)c([C@]34CO[C@H](CF)[C@H]3CSC(N)=N4)c2)cn1 [Example 4]" val=385
molecule="COc1cnc(C(=O)Nc2ccc(F)c([C@]34CO[C@H](C(F)F)[C@H]3CSC(N)=N4)c2)cn1 [Example 3]" val=257

* * *

Measured concentration at 2 h of individual entries
Assay: Rat in vivo CNS penetration: plasma, brain and CSF concentrations by LC-MS/MS
Conditions: male, Sprague Dawley, brain, po, 10 mg/kg, 10 mg/kg p.o., 2 h post-dose, unbound brain, [Br] x Br Fu, read-out: [Bru]
RESULT TYPE: concentration at 2 h (nM)

molecular_string=COc1cnc(C(=O)Nc2ccc(F)c([C@]34CO[C@H](CF)[C@H]3CSC(N)=N4)c2)cn1 result_type="concentration at 2 h" val=118
molecular_string=COc1cnc(C(=O)Nc2cc(F)c(F)c([C@]34CO[C@H](CF)[C@H]3CSC(N)=N4)c2)cn1 result_type="concentration at 2 h" val=31
molecular_string=COc1cnc(C(=O)Nc2ccc(F)c([C@]34CO[C@H](C(F)F)[C@H]3CSC(N)=N4)c2)cn1 result_type="concentration at 2 h" val=38
